The values you see were collected from the Deep4Chem optical property database.

- ASSAY NOTES: photoluminescence quantum yield (fraction); solvent given as SMILES
- STUDY CONDITIONS: in CO
QUANTITY NAME: photoluminescence quantum yield
// return a plain number; no unit text

Please review the following examples before continuing.
[[record]]
molecule = "CCOC(=O)C1=CN(Cc2ccccc2)C=C(C(=O)OCC)C1"
quantity_name = "photoluminescence quantum yield"
numeric_value = 0.24

[[record]]
molecule = "COc1c2ccccc2c(OC)c2c1c1ccc(C)cc1n2C"
quantity_name = "photoluminescence quantum yield"
numeric_value = 0.34


The value of photoluminescence quantum yield measured for the molecule "CCN(CC)c1ccc(C2=C3C(C)=CC(/C=C/c4ccc(OCCCN=[N+]=[N-])cc4)=[N+]3[B-](F)(F)n3c(C)cc(C)c32)cc1" turned out to be 0.82
